# procedureDetails: Metabolic stability in rat liver microsomes assessed as half life at 2 ug/ml preincubated for 5 mins followed by NADPH addition and measured upto 45 mins by LC-MS/MS analysis
# Format: ADME, Microsome
# conditionParameters: dose 2 µg/ml, time < 50 min
readout: half-life at 2 ug/ml (h)
Answers are plain numbers, in h.

Need half-life at 2 ug/ml, item Cc1ccc(C(=O)Nc2cc(C(=O)O)nn2Cc2ccc(F)cc2)cc1
2.88

###

# procedureDetails: Aqueous solubility of the compound in simulated gastric fluid without pepsin at pH 1.2 incubated for 24 hrs by UV-3000 absorption spectrometry analysis
# Assay type: physicochemical
# conditionParameters: simulated gastric fluid without pepsin, pH 1.2
readout: solubility at 24 h

Need solubility at 24 h, item O=C(O)c1cc(-c2ccc(C3CCNCC3)cc2)c2ccc(-c3ccc(C(F)(F)F)cc3)cc2c1 [PPTN]
< 5 µg/mL

###

Please go through the items and note down their IC50.
# measuredOn: P2Y purinoceptor 14 (Homo sapiens)
# Sequence (Q15391 whole entry): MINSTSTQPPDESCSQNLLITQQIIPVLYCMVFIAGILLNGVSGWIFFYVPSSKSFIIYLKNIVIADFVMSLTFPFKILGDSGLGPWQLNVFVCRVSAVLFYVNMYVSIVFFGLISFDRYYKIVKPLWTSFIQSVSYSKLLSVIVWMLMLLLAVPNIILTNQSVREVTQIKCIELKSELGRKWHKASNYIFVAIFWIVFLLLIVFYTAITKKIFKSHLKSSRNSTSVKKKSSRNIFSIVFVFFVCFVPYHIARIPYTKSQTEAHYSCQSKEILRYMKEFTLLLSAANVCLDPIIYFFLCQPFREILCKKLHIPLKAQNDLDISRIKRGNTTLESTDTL
# procedureDetails: Antagonist activity at P2Y14R (unknown origin) expressed in HEK293 cells assessed as inhibition of forskolin-stimulated cAMP accumulation incubated in presence of IBMX by cAMP-glo assay
Numbers only, in nM.

Worked examples, 4 compounds total:
- Cc1ccc(C(=O)Nc2cc(C(=O)O)nn2Cc2ccccc2F)cc1: 111
- CC(=O)c1ccc(C(=O)Nc2cc(C(=O)O)nn2Cc2ccc(F)cc2)cc1: 3.81
- CC(=O)c1ccc(Cn2nc(C(=O)O)cc2NC(=O)c2ccc(C)cc2)cc1: 67
- Cc1ccc(C(=O)Nc2cc(CC(=O)O)nn2Cc2ccc(F)cc2)cc1: 14.3

Batch request: IC50 for each of the following compounds.
1. Cc1ccc(C(=O)Nc2cc(C(=O)O)nn2Cc2cc(F)cc(F)c2)cc1
2. Cc1ccc(C(=O)Nc2cc(C(=O)O)nn2Cc2ccccc2C(F)(F)F)cc1
3. CCc1ccc(C(=O)Nc2cc(C(=O)O)nn2Cc2ccc(F)cc2)cc1

41
4.83
4.65

Batch request: IC50 for each of the following compounds.
1. Cc1ccc(C(=O)Nc2cc(C(=O)O)nn2Cc2cc(F)c(F)c(F)c2)cc1
2. Cc1ccc(C(=O)Nc2cc(C(=O)O)nn2Cc2cccc(F)c2)cc1

1. 4.01
2. 5.39

###

# procedureDetails: AUC (0 to infinity) in Sprague-Dawley rat at 10 mg/kg, po measured for 24 hrs
# Assay type: ADME, organism-based
# Set-up: dose 10 mg/kg, time 24 hrs, route po
# conditionParameters: in vivo
readout: AUC(0-inf) (ng·h/mL)
Numbers only, in ng·h/mL.

Need AUC(0-inf), item Cc1ccc(C(=O)Nc2cc(C(=O)O)nn2Cc2ccc(F)cc2)cc1
4500

###

# measuredOn: P2Y purinoceptor 13 (Homo sapiens)
# Sequence (Q9BPV8 whole entry): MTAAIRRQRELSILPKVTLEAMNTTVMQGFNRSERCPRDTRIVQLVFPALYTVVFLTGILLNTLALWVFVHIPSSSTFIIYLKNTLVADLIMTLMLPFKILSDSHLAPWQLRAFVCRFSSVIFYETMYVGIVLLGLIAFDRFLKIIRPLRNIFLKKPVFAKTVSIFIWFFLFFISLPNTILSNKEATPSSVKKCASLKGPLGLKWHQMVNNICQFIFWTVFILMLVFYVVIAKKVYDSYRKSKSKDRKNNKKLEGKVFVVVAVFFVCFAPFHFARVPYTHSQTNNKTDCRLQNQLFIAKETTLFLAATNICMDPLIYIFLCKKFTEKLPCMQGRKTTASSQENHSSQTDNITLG
# procedureDetails: Antagonist activity at human P2Y13R expressed in HEK293 cells assessed as inhibition of 2MeSADP-induced cAMP production preincubated for 0.5 hrs followed by 2MeSADP stimulation by cAMP-glo assay
readout: IC50 (nM)
Answers are plain numbers, in nM.

Need IC50, item CCCSc1nc(N[C@@H]2C[C@H]2c2ccc(F)c(F)c2)c2nnn([C@@H]3C[C@H](OCCO)[C@@H](O)[C@H]3O)c2n1
1400

###

# measuredOn: P2Y purinoceptor 4 (Homo sapiens)
# Sequence (P51582 whole entry): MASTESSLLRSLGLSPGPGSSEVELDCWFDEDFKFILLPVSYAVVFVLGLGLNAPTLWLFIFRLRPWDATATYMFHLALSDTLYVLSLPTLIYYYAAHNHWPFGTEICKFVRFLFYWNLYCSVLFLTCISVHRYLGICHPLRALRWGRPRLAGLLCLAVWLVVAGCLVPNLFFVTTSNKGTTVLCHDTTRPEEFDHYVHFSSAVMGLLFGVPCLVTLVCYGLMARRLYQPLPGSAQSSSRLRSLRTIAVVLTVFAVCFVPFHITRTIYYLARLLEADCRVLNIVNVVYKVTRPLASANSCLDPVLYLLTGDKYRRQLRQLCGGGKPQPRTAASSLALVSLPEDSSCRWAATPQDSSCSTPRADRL
readout: IC50 (µM)
Numbers only, in µM.

Need IC50, item O=C(C1CC1)N1CCc2cc(Br)c(S(=O)(=O)Nc3ccc(Cl)c(C(F)(F)F)c3)cc21
13.6

###

# measuredOn: UniProt Q15391
# conditionParameters: HEK293, filed as antagonist, dose 100.0 nM
Mark 1 for reported inhibition of 80% or greater; mark 0 for anything smaller.

• Cc1ccc(C(=O)Nc2cc(CC(=O)O)nn2Cc2ccc(F)cc2)cc1 = 1

Switching to the query record.
Does the compound CC(=O)c1ccc(C(=O)Nc2cc(C(=O)O)nn2Cc2ccc(F)cc2)cc1 have recorded inhibition that is 80% or more?
1

###

Please go through the items and note down their inhibition.
# measuredOn: P2Y purinoceptor 14 (Homo sapiens)
# conditionParameters: HEK293, filed as antagonist, dose 100.0 nM
Numbers only, in %.

Worked examples, 5 compounds total:
* Cc1ccc(C(=O)Nc2cc(C(=O)O)nn2Cc2ccc(F)cc2)s1 | 77.9
* Cc1ccc(C(=O)Nc2cc(C(=O)O)nn2Cc2cc(F)c(F)c(F)c2)cc1 | 90.3
* Cc1ccc(C(=O)Nc2cc(C(=O)O)nn2Cc2cccc(F)c2)cc1 | 89
* O=C(Nc1cc(C(=O)O)nn1Cc1ccc(F)cc1)c1ccccc1 | 77.4
* Cc1ccc(C(=O)Nc2cc(C(=O)O)nn2Cc2ccc(F)cc2)o1 | 43.6

Batch request: inhibition for each of the following compounds.
1. Cc1ccc(C(=O)Nc2cc(C(=O)O)nn2Cc2ccc(F)cc2)cn1
2. CCOC(=O)c1cc(NC(=O)c2ccc(C)cc2)n(Cc2ccc(F)cc2)n1
3. CC(=O)c1ccc(Cn2nc(C(=O)O)cc2NC(=O)c2ccc(C)cc2)cc1
4. O=C(O)c1cc(NC(=O)c2ccco2)n(Cc2ccc(F)cc2)n1

[53.7, 68.3, 66.3, 76]

// data source = ChEMBL document CHEMBL5150046
